Molecular target: PD-1/PD-L1 (Homo sapiens, UniProt Q9NZQ7)
Construct: made in house; host or cells: HEK293T
Sequence (Q9NZQ7 with tags, fused parts or gaps): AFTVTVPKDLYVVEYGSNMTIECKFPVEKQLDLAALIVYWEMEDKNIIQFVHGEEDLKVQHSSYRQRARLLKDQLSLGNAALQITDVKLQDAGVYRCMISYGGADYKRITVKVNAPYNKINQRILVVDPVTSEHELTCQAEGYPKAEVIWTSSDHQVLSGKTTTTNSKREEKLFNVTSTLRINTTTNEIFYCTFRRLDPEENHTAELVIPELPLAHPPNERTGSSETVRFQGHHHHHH
Test: PD-1/PD-L1 Homogenous Time-Resolved Fluorescence (HTRF) binding assay
Settings: PD-L1-His 10 nM, PD-1-Ig 20 nM; value given as range class; read-out: Range or IC50
pIC50: −log10 of the molar value.
parameter: pIC50

Record excerpt, results attached:
Cc1c(COc2cc(OCc3cncc(C#N)c3)c(CN3CC[C@@H](O)C3)cc2Cl)cccc1-c1cccc(OCCCN2CC[C@@H](O)C2)c1Cl ... 8.00 to 9.68
Cc1c(COc2cc(OCc3cncc(C#N)c3)c(CN3CCN(C)C(=O)C3)cc2Cl)cccc1-c1cccc(OCCCN2CC[C@@H](O)C2)c1C ... 8.00 to 9.68
Cc1c(COc2cc(OCc3cncc(C#N)c3)c(CN[C@@](C)(CO)C(=O)O)cc2Cl)cccc1-c1cccc(OCCCN2CCC(O)C2)c1C#N (stereo in doubt) ... 8.00 to 9.68
Cc1c(OCCCN2CCCCC2)cccc1-c1cccc(COc2cc(OCc3cncc(C#N)c3)c(CNC(CO)CO)cc2Cl)c1Cl ... 8.00 to 9.68
Cc1c(COc2cc(OCc3cncc(C#N)c3)c(CN3CCCC[C@H]3C(=O)O)cc2Cl)cccc1-c1ccc2c(c1)OC(CCN1CC[C@@H](O)C1)CO2 (single isomer, unassigned) [Example 1506] ... 8.00 to 9.68

Attention now turns to another entry.
Ask: Returns the measured pIC50 for the input molecule. Input: CC(=O)N[C@@H]1CCN(CCCOc2cccc(-c3cccc(COc4cc(OCc5cncc(C#N)c5)c(CN5CCCC[C@H]5C(=O)O)cc4Cl)c3C)c2C)C1
Result: 8.00 to 9.68

----------
Molecular target: PD-1/PD-L1 (Homo sapiens)
Construct: made in house; host or cells: HEK293T
Test: PD-1/PD-L1 Homogenous Time-Resolved Fluorescence (HTRF) binding assay
Settings: PD-L1-His 10 nM, PD-1-Ig 20 nM; value given as range class; read-out: Range or IC50
Procedure: The ability of the compounds of formula (I) to bind to PD-L1 was investigated using a PD-1/PD-L1 Homogenous Time-Resolved Fluorescence (HTRF) binding assay. Homogenous Time-Resolved Fluorescence (HTRF) Binding Assay. All binding studies were performed in an HTRF assay buffer consisting of dPBS supplemented with 0.1% […] bovine serum albumin and 0.05% (v/v) Tween-20. […]
We begin with a simple list: items and their reported IC50.

Record excerpt, results attached:
Cc1ccccc1-c1cccc(COc2cc(OCc3cncc(C#N)c3)c(CN[C@@H](CO)C(=O)O)cc2Cl)c1C [Example 3021] ... 0.21 to 10 nM
Cc1c(COc2cc(OCc3cncc(C#N)c3)c(CN3CCCC[C@H]3C(=O)O)cc2Cl)cccc1-c1cccc(OCCCN2CCC(O)C2)c1C(F)(F)F (stereo in doubt) [Example 3014] ... 10 to 100 nM

Ask: Returns the measured IC50 for the input compound. Input: Cc1c(OCCCN2CC[C@@H](O)C2)cccc1-c1cccc(COc2cc(OCc3cncc(C#N)c3)c(CN3CCCC[C@H]3C(=O)O)cc2Cl)c1Cl [Example 2302]
Result: 0.21 to 10 nM

Ask: Returns the measured IC50 for the input compound. Input: Cc1c(COc2cc(OCc3cncc(C#N)c3)c(CN3C[C@H](O)C[C@H]3C(=O)O)cc2Cl)cccc1-c1cccc(C(=O)N2CCOCC2)c1C [Example 4050]
Result: 100 to 2000 nM

Ask: Returns the measured IC50 for the input compound. Input: Cc1c(COc2cc(OCc3cncc(C#N)c3)c(CNC[C@@H](O)CC(=O)O)cc2Cl)cccc1-c1cccc(OCCCN2CC[C@@H](O)C2)c1 [Example 1014]
Result: 0.21 to 10 nM

Ask: Returns the measured IC50 for the input compound. Input: CCN(CC)C(=O)c1cccc(-c2cccc(COc3cc(OCc4cncc(C#N)c4)c(CN4C[C@H](O)C[C@H]4C(=O)O)cc3Cl)c2C)c1C [Example 4042]
Result: 100 to 2000 nM
